The following molecules are shown together with reported Bliss excess values.
- Tested on: COR-L23 (Non-Small Cell Lung Carcinoma);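 also: after 72 h of two-drug dosing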
- assayExplanation: Bliss excess, mean over the matrix (fraction); higher = more synergy

Could you please provide reported Bliss excess for CCc1c2c(nc3ccc(O)cc13)-c1cc3c(c(=O)n1C2)COC(=O)[C@]3(O)CC [SN-38] + O=C(c1cc(Cc2n[nH]c(=O)c3ccccc23)ccc1F)N1CCN(C(=O)C2CC2)CC1 [Olaparib] (first compound max 0.3 µM, 7x7, partner max 10 µM) ? Thanks!
0.0328

Using known records, supply Bliss excess for C[C@@H]1COCCN1c1cc(C2([S@](C)(=N)=O)CC2)nc(-c2ccnc3[nH]ccc23)n1 [AZD6738] + O=C(c1cc(Cc2n[nH]c(=O)c3ccccc23)ccc1F)N1CCN(C(=O)C2CC2)CC1 [Olaparib] (first compound max 10 µM, 7x7, partner max 10 µM)
-0.034

For the molecule CC1(C)CCC(CN2CCN(c3ccc(C(=O)NS(=O)(=O)c4ccc(NCC5CCOCC5)c([N+](=O)[O-])c4)c(Oc4cnc5[nH]ccc5c4)c3)CC2)=C(c2ccc(Cl)cc2)C1 [Venetoclax] + COc1cc(Nc2ncc3c(n2)-c2ccc(Cl)cc2C(c2c(F)cccc2OC)=NC3)ccc1C(=O)O [Alisertib] (first compound max 1 µM, 7x7, partner max 10 µM) , report Bliss excess.
-0.0201

Give the value of Bliss excess reported for the following: COc1cccc(OCCCN)c1-c1cc(Nc2cnc(C#N)cn2)n[nH]1 [Prexasertib] + C[C@@H]1COCCN1C2=NC(=NC(=C2)C3(CC3)[S@](=N)(=O)C)C4=C5C=CNC5=NC=C4 [AZD6738] (first compound max 1 µM, 7x7, partner max 10 µM)
-0.0311
